From: patent EP4800015A1

The entries below come with measured IC50 values attached.
# study_target: recombinant human WRN (Homo sapiens)
# Construct: purchased BPS 101264
# Sequence (Q14191 whole entry): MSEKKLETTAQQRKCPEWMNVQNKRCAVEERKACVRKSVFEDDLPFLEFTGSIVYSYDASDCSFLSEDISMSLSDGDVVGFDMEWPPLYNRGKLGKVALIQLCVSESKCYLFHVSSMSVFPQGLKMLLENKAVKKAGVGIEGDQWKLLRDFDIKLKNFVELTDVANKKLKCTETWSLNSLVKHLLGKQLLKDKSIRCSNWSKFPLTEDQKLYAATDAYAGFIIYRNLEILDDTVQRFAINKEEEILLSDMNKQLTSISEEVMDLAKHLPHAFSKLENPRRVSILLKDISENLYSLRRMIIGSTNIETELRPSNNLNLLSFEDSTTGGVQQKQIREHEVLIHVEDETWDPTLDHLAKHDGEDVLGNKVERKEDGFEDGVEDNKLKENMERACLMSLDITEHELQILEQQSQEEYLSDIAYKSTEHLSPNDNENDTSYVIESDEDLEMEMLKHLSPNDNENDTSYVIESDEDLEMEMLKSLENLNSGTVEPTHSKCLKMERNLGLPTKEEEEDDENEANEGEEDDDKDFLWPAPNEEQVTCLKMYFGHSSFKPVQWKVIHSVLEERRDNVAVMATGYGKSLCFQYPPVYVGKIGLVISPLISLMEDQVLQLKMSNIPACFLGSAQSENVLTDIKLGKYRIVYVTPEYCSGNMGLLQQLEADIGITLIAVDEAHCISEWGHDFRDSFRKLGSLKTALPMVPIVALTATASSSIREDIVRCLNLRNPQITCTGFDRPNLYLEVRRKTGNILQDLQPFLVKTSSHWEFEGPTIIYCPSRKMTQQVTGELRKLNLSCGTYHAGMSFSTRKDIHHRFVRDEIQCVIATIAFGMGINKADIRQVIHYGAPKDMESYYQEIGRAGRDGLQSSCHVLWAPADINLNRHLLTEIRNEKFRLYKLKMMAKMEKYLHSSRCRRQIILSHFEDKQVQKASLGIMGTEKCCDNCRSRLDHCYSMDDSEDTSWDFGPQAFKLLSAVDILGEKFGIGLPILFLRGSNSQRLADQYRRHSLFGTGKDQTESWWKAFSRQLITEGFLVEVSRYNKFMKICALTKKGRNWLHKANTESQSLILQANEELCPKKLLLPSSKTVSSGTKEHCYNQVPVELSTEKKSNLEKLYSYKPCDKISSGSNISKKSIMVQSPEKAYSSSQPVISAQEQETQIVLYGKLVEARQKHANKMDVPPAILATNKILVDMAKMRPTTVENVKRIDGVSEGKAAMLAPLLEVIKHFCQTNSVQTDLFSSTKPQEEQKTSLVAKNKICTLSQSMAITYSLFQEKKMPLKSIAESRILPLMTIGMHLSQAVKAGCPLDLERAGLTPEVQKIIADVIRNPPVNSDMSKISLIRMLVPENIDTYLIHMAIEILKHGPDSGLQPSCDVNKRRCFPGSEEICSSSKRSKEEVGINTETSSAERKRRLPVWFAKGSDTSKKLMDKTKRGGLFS
# measurement_notes: Inhibition of WRN enzyme activity (ATPase), ADP-Glo Kinase Assay
# Type: biochemical
# condition_parameters: WRN protein 5 nM, Flap 0.1 nM, ATP 30 µM; read-out: IC50

>>> result("CCc1c(N2CCN(C(=O)c3ncnc(C)c3O)CC2)c(=O)n2nc(-c3ccc4ccoc4c3)nc2n1CC(=O)Nc1ccc(SC(F)(F)F)cc1")
"1 to 100 nM"
>>> result("CCc1c(N2CCN(C(=O)c3ncnc(C)c3O)CC2)c(=O)n2nc(-c3cc4ccccc4[nH]3)nc2n1CC(=O)Nc1ccc(C(F)(F)F)cc1Cl")
"1 to 100 nM"

Let's switch to this molecule now.
IC50 recorded for this molecule, CCc1c(N2CCN(C(=O)c3ncnc(C)c3O)CC2)c(=O)n2nc(C3=CC4(C3)CC(C(N)=O)C4)nc2n1CC(=O)Nc1ccc(C(F)(F)F)cc1Cl (stereo not drawn) , is 1 to 100 nM
